Values compiled from patent US20210387966A1.

- measured.on: human Nav1.8 channels (Homo sapiens, UniProt Q9Y5Y9)
- Construct: expressed in transfected cells
- Sequence (Q9Y5Y9 whole entry): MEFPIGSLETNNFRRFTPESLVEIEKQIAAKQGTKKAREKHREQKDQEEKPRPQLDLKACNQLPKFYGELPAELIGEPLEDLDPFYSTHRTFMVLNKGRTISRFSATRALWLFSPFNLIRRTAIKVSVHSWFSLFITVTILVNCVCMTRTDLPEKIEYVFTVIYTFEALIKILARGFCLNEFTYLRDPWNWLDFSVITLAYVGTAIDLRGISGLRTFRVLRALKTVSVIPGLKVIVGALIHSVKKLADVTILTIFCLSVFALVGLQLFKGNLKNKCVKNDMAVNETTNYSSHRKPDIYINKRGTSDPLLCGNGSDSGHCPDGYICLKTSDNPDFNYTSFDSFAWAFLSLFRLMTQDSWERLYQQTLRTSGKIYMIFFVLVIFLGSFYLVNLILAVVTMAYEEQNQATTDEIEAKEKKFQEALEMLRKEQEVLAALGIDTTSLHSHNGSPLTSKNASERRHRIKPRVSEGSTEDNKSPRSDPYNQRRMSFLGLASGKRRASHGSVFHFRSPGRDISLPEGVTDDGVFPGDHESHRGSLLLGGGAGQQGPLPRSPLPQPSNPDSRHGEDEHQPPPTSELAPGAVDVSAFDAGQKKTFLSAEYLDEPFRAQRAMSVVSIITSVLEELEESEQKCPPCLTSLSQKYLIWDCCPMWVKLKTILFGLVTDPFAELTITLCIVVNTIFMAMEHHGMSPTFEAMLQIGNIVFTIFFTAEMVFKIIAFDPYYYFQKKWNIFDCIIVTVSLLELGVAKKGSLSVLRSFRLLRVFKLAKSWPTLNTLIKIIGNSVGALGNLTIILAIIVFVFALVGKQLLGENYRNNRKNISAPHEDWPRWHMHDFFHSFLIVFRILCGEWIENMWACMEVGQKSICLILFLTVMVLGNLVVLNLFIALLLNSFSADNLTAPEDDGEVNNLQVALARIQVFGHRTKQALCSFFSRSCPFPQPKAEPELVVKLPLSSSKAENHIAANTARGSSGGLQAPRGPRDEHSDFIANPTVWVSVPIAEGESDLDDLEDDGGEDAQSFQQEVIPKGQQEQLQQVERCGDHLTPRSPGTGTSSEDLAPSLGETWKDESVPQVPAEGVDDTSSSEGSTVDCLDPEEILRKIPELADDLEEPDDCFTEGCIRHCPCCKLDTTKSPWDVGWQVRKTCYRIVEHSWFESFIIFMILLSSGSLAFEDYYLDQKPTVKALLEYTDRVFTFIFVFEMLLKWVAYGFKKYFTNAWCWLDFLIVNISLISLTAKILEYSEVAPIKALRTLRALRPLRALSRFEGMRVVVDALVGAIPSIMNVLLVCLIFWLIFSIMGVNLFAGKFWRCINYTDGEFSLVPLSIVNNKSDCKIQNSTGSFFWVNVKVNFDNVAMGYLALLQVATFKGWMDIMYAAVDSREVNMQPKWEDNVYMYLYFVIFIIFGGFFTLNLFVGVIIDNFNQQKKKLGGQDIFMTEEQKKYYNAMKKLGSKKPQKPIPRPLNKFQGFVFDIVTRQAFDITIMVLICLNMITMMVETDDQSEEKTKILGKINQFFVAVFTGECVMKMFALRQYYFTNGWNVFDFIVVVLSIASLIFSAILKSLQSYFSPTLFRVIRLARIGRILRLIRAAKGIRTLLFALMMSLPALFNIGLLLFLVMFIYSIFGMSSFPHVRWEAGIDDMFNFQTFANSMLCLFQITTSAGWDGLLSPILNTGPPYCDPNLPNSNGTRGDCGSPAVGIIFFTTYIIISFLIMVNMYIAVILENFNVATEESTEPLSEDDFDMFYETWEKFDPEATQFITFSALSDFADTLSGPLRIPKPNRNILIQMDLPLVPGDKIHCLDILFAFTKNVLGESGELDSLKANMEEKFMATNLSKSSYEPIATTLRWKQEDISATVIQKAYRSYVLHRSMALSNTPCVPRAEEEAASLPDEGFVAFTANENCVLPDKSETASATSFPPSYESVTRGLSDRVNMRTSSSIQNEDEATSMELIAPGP
- experiment.notes: Nav1.8 Qube automated patch-clamp assay
- Assay type: cell-based
- condition.details: human Nav1.8 stably expressed in HEK 293 cells; whole-cell voltage clamp, room temperature; resting or inactivated state not specified; read-out: IC50 values (nM) for Examples in the Nav1.8 Qube Assay
Reported values of IC50 for individual entries

{"compound": "N#Cc1cc(NC(=O)c2cc(C(F)(F)F)cnc2N2C[C@H]3CC[C@H]3C2)ccn1 [Example 153]", "IC50 / nM": 310}
{"compound": "NS(=O)(=O)c1cc(NC(=O)c2cc(C(F)(F)F)cnc2N2CCCC(Cl)(Cl)CC2)ccn1 [Example 51]", "IC50 / nM": 6.6}
{"compound": "CC1CCCN(c2ncc(C(F)(F)F)cc2C(=O)Nc2ccnc(S(N)(=O)=O)c2)C1 (single isomer, unassigned) [Example 57]", "IC50 / nM": 31}
{"compound": "CC1CN(c2nc(C(F)(F)F)c(Cl)cc2C(=O)Nc2ccnc(S(N)(=O)=O)c2)CCC1(F)F (single isomer, unassigned) [Example 164]", "IC50 / nM": 3.3}

###

- measured.on: human Nav1.8 channels (Homo sapiens)
- Construct: expressed in transfected cells
- experiment.notes: Nav1.8 Qube automated patch-clamp assay
- Assay type: cell-based
- condition.details: human Nav1.8 stably expressed in HEK 293 cells; whole-cell voltage clamp, room temperature; resting or inactivated state not specified; read-out: IC50 values (nM) for Examples in the Nav1.8 Qube Assay
value.type: log10 of IC50 (log10 of the value in nM)

{"compound": "Cc1nc(N2CCCC(F)(F)CC2)c(C(=O)Nc2cnn(S(C)(=O)=O)c2)cc1Cl [Example 31]", "log10 of IC50": 0.61}
{"compound": "CC1(C)c2cc(F)ccc2CN1c1ncc(C(F)(F)F)cc1C(=O)Nc1ccnc(S(N)(=O)=O)c1 [Example 113]", "log10 of IC50": 3.97}
{"compound": "COc1nc(N2CCCC(F)(F)CC2)c(C(=O)Nc2ccnc(S(N)(=O)=O)c2)cc1Cl [Example 41]", "log10 of IC50": 0.71}
{"compound": "NS(=O)(=O)c1cc(NC(=O)c2cc(C(F)(F)F)cnc2N2CCSCC2)ccn1 [Example 84]", "log10 of IC50": 2.17}
{"compound": "C[C@@H]1CN(c2ncc(C(F)(F)F)cc2C(=O)Nc2ccnc(S(N)(=O)=O)c2)C[C@H](C)[C@]1(C)O [Example 75]", "log10 of IC50": 2.37}
{"compound": "O=C(Nc1cncc(C(F)(F)F)c1)c1cc(C(F)(F)F)cnc1N1CCCCCC1 [Example 200]", "log10 of IC50": 3.99}
{"compound": "NS(=O)(=O)c1cc(NC(=O)c2cnc(C3CC3)nc2N2CCCC(F)(F)CC2)ccn1 [Example 38]", "log10 of IC50": 1.38}
{"compound": "NS(=O)(=O)c1cc(NC(=O)c2cc(C(F)(F)F)cnc2N2Cc3cccc(OC(F)(F)F)c3C2)ccn1 [Example 90]", "log10 of IC50": 2.47}

###

- measured.on: human Nav1.8 channels (Homo sapiens, UniProt Q9Y5Y9)
- Construct: expressed in transfected cells
- experiment.notes: Nav1.8 Qube automated patch-clamp assay
- Type: cell-based
- condition.details: human Nav1.8 stably expressed in HEK 293 cells; whole-cell voltage clamp, room temperature; resting or inactivated state not specified; read-out: IC50 values (nM) for Examples in the Nav1.8 Qube Assay

{"compound": "C[C@H]1CN(c2ncc(C(F)(F)F)cc2C(=O)Nc2ccnc(S(N)(=O)=O)c2)CCC1(F)F (single isomer, unassigned)", "readout.units": "nM", "IC50": 3.9}
{"compound": "NS(=O)(=O)c1cc(NC(=O)c2cc(C3CC3)c(C3CC3)nc2N2CCC(F)(F)CC2)ccn1", "readout.units": "nM", "IC50": 94}
{"compound": "N#Cc1cc(C(=O)Nc2ccnc(S(N)(=O)=O)c2)c(N2CCC(F)(F)CC2)nc1C(F)(F)F", "readout.units": "nM", "IC50": 37}
{"compound": "Cc1cncc(NC(=O)c2cc(C(F)(F)F)cnc2N2CCCCCC2)c1", "readout.units": "nM", "IC50": 2770}
